SYSTEM: cruzain (Trypanosoma cruzi)
Sequence (P25779 123-337): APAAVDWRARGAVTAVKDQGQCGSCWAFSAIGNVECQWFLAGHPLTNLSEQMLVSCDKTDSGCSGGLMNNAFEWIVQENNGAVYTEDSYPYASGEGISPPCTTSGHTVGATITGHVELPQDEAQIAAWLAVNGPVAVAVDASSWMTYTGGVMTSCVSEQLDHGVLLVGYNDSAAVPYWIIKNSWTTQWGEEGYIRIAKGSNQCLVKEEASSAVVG
PROPERTY LABEL: IC50 (nM)
A number alone suffices; assume nM.

I looked up CC(C)C[C@H](NC(=O)[C@H]1O[C@@H]1C(=O)O)C(=O)NCCCCN=C(N)N [E-64, reference compound] and its IC50 for cruzain (Trypanosoma cruzi) was 29.7
